Measured values drawn from patent US10780067B2 for this set.

assay: clinical; settings: female, human, in vivo, median diclofenac concentration, peripheral locations (5 through 8), abdominal group
Metric: concentration at 72 h (ng/g)
Answer format: numeric, ng/g implied, no suffix.

## Task Dear colleague, I am looking for the recorded concentration at 72 h of the following compound: O=C(O)Cc1ccccc1Nc1c(Cl)cccc1Cl
## Result 0.75

* * *

experiment: clinical; conditions: female, human, in vivo, diclofenac breast concentration, abdominal patch, sampling location 5
Metric: concentration at 72 h (ng/g)
The answer is to be given in ng/g; state only the numeric part.

## Task Requested read-out: concentration at 72 h. Entry: O=C(O)Cc1ccccc1Nc1c(Cl)cccc1Cl
## Result 0.11

* * *

assay: clinical; conditions: female, human, in vivo, diclofenac breast concentration, abdominal patch, sampling location 4
Metric: concentration at 72 h (ng/g)
Numbers only here, please. The scale is ng/g.

## Task Looking for the measured concentration at 72 h of O=C(O)Cc1ccccc1Nc1c(Cl)cccc1Cl [diclofenac] , can you help?
## Result 0.19

* * *

assay: clinical; conditions: female, human, in vivo, range of diclofenac concentrations in tissue samples of three women, abdominal group
Metric: concentration at 72 h

## Task What value of measured concentration at 72 h is listed for O=C(O)Cc1ccccc1Nc1c(Cl)cccc1Cl ?
## Result 1.2 to 4.8 ng/g

* * *

assay: Study 1: oral tamoxifen vs transdermal 4-OHT and endoxifen gel, mammary and plasma concentrations; conditions: athymic nude (Hsd:RHFoxn1^rnu/rnu), rat, plasma, oral, 3 mg/kg/day
Metric: concentration at 6 weeks (ng/mL)
Report the figure in ng/mL without appending any unit label.

## Task Bench note: what concentration at 6 weeks did CC/C(=C(\c1ccccc1)c1ccc(OCCN(C)C)cc1)c1ccccc1 [Tamoxifen, (Z)-tamoxifen] show?
## Result 8

* * *

assay: clinical; conditions: female, human, in vivo, diclofenac breast concentration, breast patch, sampling location 6
Metric: concentration at 72 h (ng/g)
Use ng/g as the unit, but write only the number.

## Task // query concentration at 72 h value for entry O=C(O)Cc1ccccc1Nc1c(Cl)cccc1Cl
## Result 0.31

* * *

test: clinical; conditions: female, human, in vivo, diclofenac breast concentration, breast patch, All locations
Metric: concentration at 72 h
Entry format: amount then unit.

## Task Please look up its concentration at 72 h: O=C(O)Cc1ccccc1Nc1c(Cl)cccc1Cl [diclofenac]
## Result 0.77 ng/g

* * *

experiment: clinical; conditions: female, human, in vivo, diclofenac breast concentration, abdominal patch, sampling location 3
Metric: concentration at 72 h (ng/g)
Express the result in ng/g but write the number alone.

## Task Recorded concentration at 72 h of O=C(O)Cc1ccccc1Nc1c(Cl)cccc1Cl [diclofenac] , please.
## Result 0.2

* * *

experiment: clinical; details: female, human, in vivo, diclofenac breast concentration, abdominal patch, All locations
Metric: concentration at 72 h (ng/g)
Reply with just the number (in ng/g).

## Task Suppose we examine the compound O=C(O)Cc1ccccc1Nc1c(Cl)cccc1Cl ; what concentration at 72 h value has been reported?
## Result 0.13

* * *

assay: clinical; conditions: female, human, in vivo, median breast concentration of diclofenac with IQR, fatty samples
Metric: concentration at 72 h (ng/g)
State just the number; it will be interpreted in ng/g.

## Task Which concentration at 72 h value is on record for O=C(O)Cc1ccccc1Nc1c(Cl)cccc1Cl ?
## Result 8.71

* * *

test: clinical; settings: female, human, in vivo, diclofenac breast concentration, abdominal patch, sampling location 2
Metric: concentration at 72 h (ng/g)
A number alone suffices; assume ng/g.

## Task Item O=C(O)Cc1ccccc1Nc1c(Cl)cccc1Cl has what recorded concentration at 72 h?
## Result 0.18

* * *

experiment: Study 1: oral tamoxifen vs transdermal 4-OHT and endoxifen gel, mammary and plasma concentrations; conditions: athymic nude (Hsd:RHFoxn1^rnu/rnu), rat, axillary mammary gland, oral, 3 mg/kg/day
Metric: concentration at 6 weeks (ng/g)
Answer with a number only, understood to be in ng/g.

## Task Could you tell me which concentration at 6 weeks is on file for CC/C(=C(\c1ccccc1)c1ccc(OCCN(C)C)cc1)c1ccccc1 [Tamoxifen, (Z)-tamoxifen] ?
## Result 44.2

* * *

assay: clinical; settings: female, human, in vivo, median breast concentration of diclofenac with IQR, mixed samples
Metric: concentration at 72 h

## Task So what's the measured concentration at 72 h for this one? O=C(O)Cc1ccccc1Nc1c(Cl)cccc1Cl
## Result 0.52 ng/g

* * *

experiment: clinical; conditions: female, human, in vivo, diclofenac breast concentration, breast patch, sampling location 5
Metric: concentration at 72 h

## Task Need concentration at 72 h of O=C(O)Cc1ccccc1Nc1c(Cl)cccc1Cl , thanks.
## Result 1.98 ng/g

* * *

assay: clinical; settings: female, human, in vivo, diclofenac plasma concentration, abdominal patch
Metric: concentration at 72 h

## Task Report concentration at 72 h for O=C(O)Cc1ccccc1Nc1c(Cl)cccc1Cl please.
## Result 1.06 ng/mL

* * *

test: clinical; details: female, human, in vivo, median diclofenac breast concentration, breast group, medium-sized breasts
Metric: concentration at 72 h (ng/g)
# number only, unit ng/g dropped from output

## Task Given the entry O=C(O)Cc1ccccc1Nc1c(Cl)cccc1Cl , report its measured concentration at 72 h.
## Result 1.31

* * *

experiment: clinical; conditions: female, human, in vivo, diclofenac breast concentration, abdominal patch, sampling location 7
Metric: concentration at 72 h (ng/g)
A number alone suffices; assume ng/g.

## Task Recorded concentration at 72 h for O=C(O)Cc1ccccc1Nc1c(Cl)cccc1Cl , please?
## Result 0.14

* * *

test: clinical; settings: female, human, in vivo, diclofenac breast concentration, breast patch, sampling location 3
Metric: concentration at 72 h (ng/g)
Give the value in ng/g but do not write ng/g after it.

## Task Reported concentration at 72 h for O=C(O)Cc1ccccc1Nc1c(Cl)cccc1Cl : what is it?
## Result 0.48

* * *

assay: clinical; details: female, human, in vivo, median diclofenac concentration, peripheral locations (5 through 8), breast group
Metric: concentration at 72 h (ng/g)
Respond numerically; units are ng/g and should not be typed.

## Task Fill in: concentration at 72 h of O=C(O)Cc1ccccc1Nc1c(Cl)cccc1Cl is ___
## Result 9.92

* * *

experiment: Study 1: oral tamoxifen vs transdermal 4-OHT and endoxifen gel, mammary and plasma concentrations; conditions: athymic nude (Hsd:RHFoxn1^rnu/rnu), rat, inguinal mammary gland, oral, 3 mg/kg/day
Metric: concentration at 6 weeks (ng/g)
Reply with just the number (in ng/g).

## Task If you can, please state the reported concentration at 6 weeks value of CC/C(=C(\c1ccccc1)c1ccc(OCCN(C)C)cc1)c1ccccc1 [Tamoxifen, (Z)-tamoxifen] .
## Result 69.6

* * *

experiment: clinical; settings: female, human, in vivo, median diclofenac concentration, central locations (1 through 4), breast group
Metric: concentration at 72 h (ng/g)
Please reply with the bare figure in ng/g and do not write the unit itself.

## Task If you can, please state the reported concentration at 72 h value of O=C(O)Cc1ccccc1Nc1c(Cl)cccc1Cl .
## Result 4.91

* * *

assay: clinical; details: female, human, in vivo, diclofenac breast concentration, abdominal patch, sampling location 8
Metric: concentration at 72 h (ng/g)
Your answer is read as ng/g, so omit the unit and give the number.

## Task So what does the record say about concentration at 72 h for O=C(O)Cc1ccccc1Nc1c(Cl)cccc1Cl ?
## Result 0.08

* * *

assay: clinical; settings: female, human, in vivo, median diclofenac breast concentration, breast group, small breasts
Metric: concentration at 72 h (ng/g)
State the answer as a number, implicitly in ng/g.

## Task concentration at 72 h for O=C(O)Cc1ccccc1Nc1c(Cl)cccc1Cl ?
## Result 1.12

* * *

assay: clinical; conditions: female, human, in vivo, diclofenac breast concentration, breast patch, sampling location 4
Metric: concentration at 72 h (ng/g)
Report the figure in ng/g without appending any unit label.

## Task Entry O=C(O)Cc1ccccc1Nc1c(Cl)cccc1Cl : reported concentration at 72 h = ?
## Result 1.64

* * *

experiment: clinical; conditions: female, human, in vivo, diclofenac breast concentration, abdominal patch, sampling location 1
Metric: concentration at 72 h (ng/g)
Could you give me the number in ng/g? Just the number is fine.

## Task Entry O=C(O)Cc1ccccc1Nc1c(Cl)cccc1Cl has what concentration at 72 h?
## Result 0

* * *

test: clinical; conditions: female, human, in vivo, diclofenac plasma concentration, breast patch
Metric: concentration at 72 h (ng/mL)
A number alone suffices; assume ng/mL.

## Task Fill blank: measured concentration at 72 h of the compound O=C(O)Cc1ccccc1Nc1c(Cl)cccc1Cl is ____.
## Result 1.02

* * *

assay: clinical; conditions: female, human, in vivo, diclofenac breast concentration, breast patch, sampling location 1
Metric: concentration at 72 h (ng/g)
Write down the numeric answer in ng/g and omit the unit.

## Task Endpoint output: concentration at 72 h of O=C(O)Cc1ccccc1Nc1c(Cl)cccc1Cl . Value?
## Result 0.63
